# System: T1, HpDnaB replicative helicase (Helicobacter pylori, UniProt O25916 1-488)
# T1 sequence: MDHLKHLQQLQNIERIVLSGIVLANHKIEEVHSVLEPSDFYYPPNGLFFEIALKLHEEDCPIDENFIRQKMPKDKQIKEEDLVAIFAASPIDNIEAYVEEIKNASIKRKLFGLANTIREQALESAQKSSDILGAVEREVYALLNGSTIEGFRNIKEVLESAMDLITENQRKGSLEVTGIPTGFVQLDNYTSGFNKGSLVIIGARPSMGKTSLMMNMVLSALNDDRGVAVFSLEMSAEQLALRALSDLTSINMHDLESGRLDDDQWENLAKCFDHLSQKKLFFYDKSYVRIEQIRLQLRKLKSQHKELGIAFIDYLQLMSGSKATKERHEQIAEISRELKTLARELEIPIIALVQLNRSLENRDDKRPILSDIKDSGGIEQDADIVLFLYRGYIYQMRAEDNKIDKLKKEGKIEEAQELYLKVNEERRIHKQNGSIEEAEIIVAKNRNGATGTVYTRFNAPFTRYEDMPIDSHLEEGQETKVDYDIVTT
# Protocol text: fluorescence anisotropy
Metric name: Kd (nM)
Expressed in nM, but write only the number.

Memo: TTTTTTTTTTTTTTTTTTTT (ssDNA) [20dT] , reported Kd: 15
